# Tested on: DMS 114 small cell lung
# protocol.text: NCI tumour cell line growth inhibition, 48 h
quantity: TGI

O=C(O)C(CS)Nc1c2ccccc2nc2ccccc12 (stereo not drawn); > 100 µM

### Prompt Give TGI for `Cc1ccc(NC(=O)CC(=O)n2nc(C)c(N=Nc3ccccc3C(=O)O)c2C)cc1`
### Response > 100 µM

### Prompt Give the reported value of TGI for this record: `O/N=C/c1ncccc1C1OCCO1`
### Response > 100 µM

### Prompt Using known records, supply TGI for `COc1ccc2nc3c(C(=O)NCCN(C)C)cccc3nc2c1`
### Response 20.2 µM

### Prompt Provide measured TGI value, entry: `COc1ccc(N2C(=O)/C(=C/c3ccc(N(CCC#N)CCC#N)cc3C)N=C2c2cc([N+](=O)[O-])ccc2Cl)cc1`
### Response > 23.5 µM

### Prompt Input CC(SC(=S)N1CCOCC1)c1cc2oc(=O)n(C)c2cc1Cl (stereo not drawn) , output reported TGI.
### Response > 100 µM

### Prompt Answer with the recorded TGI for the compound listed here: NC1=NC(c2ccccc2)CC(c2cc(Cl)ccc2O)=N1 (stereo not drawn)
### Response 25.6 µM

### Prompt Give me measured TGI, please, for this compound: O=C(CC1(O)C(=O)Nc2ccccc21)c1ccncc1 (stereo not drawn)
### Response > 100 µM

* * *

# Test system: LOX IMVI melanoma
# protocol.text: NCI tumour cell line growth inhibition, 48 h
quantity: GI50

Below, 6 compounds whose answers are already recorded.
COc1cc[nH]c1/C=C1\C(=O)Nc2ccc(F)c(C#CC3(O)CCNCC3)c21; 0.0645 µM
N#CC(C#N)=C1Nc2ccccc2S1; 42.5 µM
CCCC(=O)OCC1OC(n2cnc3c(=S)nc[nH]c32)C(OC(=O)CCC)C1OC(=O)CCC (stereo not given); 2.34 µM
Nc1nc2c(nnn2C2CC(O)C(CO)O2)c(=O)[nH]1 (stereo not given); 0.92 µM
O=S(=O)(NC1=NCCN1C(=S)SN1CCn2c1nsc2=S)c1cccc(Cl)c1; 10.7 µM
COc1ccc(-c2nc(-c3nc4ccc(Cl)cc4[nH]3)c3ccccn23)cc1; 2.85 µM

Next item in the queue.
### Prompt Quickly give me recorded GI50 for CCOC1Oc2ccc(C)cc2C(=O)/C1=C\Nc1ccc(C(N)=O)cc1 (stereo not given)
### Response 13.9 µM

* * *

Entries and their TGI
# System: PC-3 prostate
# protocol.text: NCI tumour cell line growth inhibition, 48 h
Kindly provide the numeric value in µM only, without the unit symbol.

COC1(C)CP(=O)(OC(C)C)CC(C)=C1Cl (stereo not given); 77.9

For the next question, use this molecule.
### Prompt Please look at `CC/C=C\C[C@@H](O)C/C=C1/C(=O)C=C[C@H]1C/C=C\CCCC(=O)OC` and tell me its recorded TGI on PC-3 prostate.
### Response 10.8

* * *

# Test system: OVCAR-3 ovarian
# protocol.text: NCI tumour cell line growth inhibition, 48 h
Entries and their TGI

Before answering, review these 4 worked examples.
Cc1cc(N(CCC#N)CCC#N)ccc1/C=C1\N=C(c2cc([N+](=O)[O-])ccc2Cl)N(c2cccc(Cl)c2)C1=O; > 100 µM
COc1cc(/C=N\N(C)C)cc(/C=N/N(C)C)c1O; 53.4 µM
O=P1(O)c2ccccc2CCc2ccccc21; > 100 µM
Cc1ccc(C(=O)NC(C)C)cc1-c1ccc(C(=O)NCC2CC2)cc1; > 25 µM

Okay, next one:
### Prompt Please tell me the measured TGI for `Nc1cccc(S(=O)(=O)NCC(=O)O)c1` ; system: OVCAR-3 ovarian.
### Response > 100 µM

* * *

Each entry below carries its reported TGI.
# System: EKVX NSCLC
# protocol.text: NCI tumour cell line growth inhibition, 48 h

Below are worked cases with known answers.
O=C1CCC2(c3ccccc3)Nc3ccncc3N12 (centres undefined); > 10 µM
O=C(CC1C(=O)NN(c2ccc(Br)cc2)C1=O)c1cc(O)ccc1O (centres undefined); > 50 µM
C#CCNC(=O)c1cccc2c1cc(C)n2-c1nc2c(c(NCc3ccccc3)n1)CCCC2; 0.112 µM
N#Cc1c(=O)n(-c2ccccc2)c(O)c2c(N)n[nH]c12; > 100 µM
COc1ccc2c(c1)-c1nc(=S)n(CCCN(C)C)c3ccc([N+](=O)[O-])c(c13)N2; 14.5 µM
O=C(N/C(=C\c1cccc([N+](=O)[O-])c1)c1nc2ccc([N+](=O)[O-])cc2[nH]1)c1ccccc1; > 100 µM
COc1cc(/C=C2/SC(c3ccccc3)N(c3ccccc3Cl)C2=O)cc(OC)c1OC (centres undefined); > 100 µM
c1nc(N2CC2)c2cnn(C3CCCCO3)c2n1 (centres undefined); > 100 µM

Shift focus to the following entry.
### Prompt Annotate the compound `O=P1(O)c2ccccc2CCc2ccccc21` with its measured TGI.
### Response > 100 µM

* * *

# Tested on: NCI-H226 lung
# protocol.text: NCI tumour cell line growth inhibition, 48 h
quantity: TGI (µM)
Express the result in µM but write the number alone.

### Prompt Answer with the recorded TGI for the molecule listed here: `COc1ccc2c(c1)C(=O)c1c-2n(CCCn2ccnc2)c(=O)c2cc([N+](=O)[O-])ccc12`
### Response 0.584

### Prompt Give TGI for the following molecule: Nc1nccc(-c2c(-c3ccc(F)cc3)ncn2C2CCC(O)CC2)n1 (stereo not given)
### Response 24.5

### Prompt Using known records, supply TGI for `COc1ccc(N2C(=O)/C(=C/c3ccc(N(CCC#N)CCC#N)cc3C)N=C2c2cc([N+](=O)[O-])ccc2Cl)cc1`
### Response 42.8

### Prompt Give a short answer stating reported TGI for `O=S(=O)(NC1=NCCN1C(=S)SN1CCn2c1nsc2=S)c1cccc(Cl)c1` .
### Response 55.7

* * *

# Tested on: SK-MEL-5 melanoma
# protocol.text: NCI tumour cell line growth inhibition, 48 h
quantity: TGI

Solved cases (6 shown):
CO/C(N)=C(\C#N)N=Cc1ccco1; > 100 µM
COc1ccc(C[C@@H](CO)NC2=C(C#N)CCC2)cc1; > 100 µM
Cc1ccc2c(c1)Sc1c(ccc3ccccc13)N2; > 100 µM
CCCC1N2CCCCC2[C@@H]2c3[nH]c4ccccc4c3CCN12 (stereo partly specified); > 100 µM
COC1(C)CP(=O)(OC(C)C)CC(C)=C1Cl (stereo unspecified); 26.6 µM
COC(=O)C1=C(O)C(C(=O)OC)[C@]2(O)[C@H](C(=O)OC)[C@H]1C[C@@H](c1ccc(Cl)cc1)[C@H]2C(=O)OC (stereo partly specified); 20.5 µM

### Prompt Quote TGI with test system SK-MEL-5 melanoma for `CCOC(=O)C1(Cc2ccccc2)C=CN(C(=O)c2ccccc2)C=C1`
### Response 29.8 µM

### Prompt Report value only: TGI, SK-MEL-5 melanoma, `COc1cc(C(=O)CBr)c(OC)cc1C`
### Response > 100 µM

### Prompt Determine reported TGI for `c1ccc(-c2nc3ccccc3n3c(CN4CCCCC4)nnc23)cc1` ; test system: SK-MEL-5 melanoma.
### Response > 100 µM

### Prompt Give TGI for this entry on SK-MEL-5 melanoma: `Oc1c2cc(Cl)cc1COCc1cc(Cl)cc(c1O)COCc1cc(Cl)cc(c1O)COC2`
### Response > 100 µM

### Prompt Answer with TGI of `O=C1c2cccc([N+](=O)[O-])c2C(=O)N1c1ncn[nH]1` measured for SK-MEL-5 melanoma.
### Response > 100 µM

* * *

# Tested on: MDA-N
# protocol.text: NCI tumour cell line growth inhibition, 48 h
quantity: TGI

c1ccc(-c2cn3c(nc4ccccc43)c(-c3ccccc3)n2)cc1; > 31.6 µM

### Prompt Please give measured TGI of the following entry: CC1(C)C2CCC(CN)(C2)C1N (centres undefined)
### Response > 100 µM

### Prompt Look up and report measured TGI for this entry: CC(=O)O[C@H]1C(=O)[C@@]2(C)C(C(OC(=O)c3ccccc3)[C@]3(O)CC(OC(=O)[C@H](OC(=O)CCC(=O)O)C(NC(=O)c4ccccc4)c4ccccc4)C(C)=C1C3(C)C)C1(OC(C)=O)COC1C[C@@H]2O (some centres undefined)
### Response < 0.01 µM

### Prompt Provide one value: measured TGI of `CN(CCC(=O)O)C1=Nc2ccc(Cl)cc2C(c2ccccc2)=[N+]([O-])C1`
### Response > 100 µM

### Prompt Kindly indicate its recorded TGI. Item: `O=P1(O)c2ccccc2CCc2ccccc21`
### Response > 100 µM

### Prompt Kindly indicate its recorded TGI. Item: OC1(c2ccc(Cl)cc2)C(N2CCCC2)c2ccccc2C2=NCCN21 (centres undefined)
### Response 51.4 µM

### Prompt Given `c1ccc2c(c1)CC1=C(O2)c2ccccc2OC1` , respond with its TGI.
### Response 45.5 µM

### Prompt Check the records and state TGI for `O=C1c2ccccc2C(=O)N1CCc1ncc[nH]1`
### Response > 100 µM

### Prompt For `CCOC(=S)SSSC(=S)OCC` , write its TGI.
### Response > 100 µM

meta.source: PubChem BioAssay (NCI)
